Source of measurements: patent US20230040182A1

Target: Kv1.3 potassium channel (Homo sapiens, UniProt P22001)
Sequence (P22001 whole entry): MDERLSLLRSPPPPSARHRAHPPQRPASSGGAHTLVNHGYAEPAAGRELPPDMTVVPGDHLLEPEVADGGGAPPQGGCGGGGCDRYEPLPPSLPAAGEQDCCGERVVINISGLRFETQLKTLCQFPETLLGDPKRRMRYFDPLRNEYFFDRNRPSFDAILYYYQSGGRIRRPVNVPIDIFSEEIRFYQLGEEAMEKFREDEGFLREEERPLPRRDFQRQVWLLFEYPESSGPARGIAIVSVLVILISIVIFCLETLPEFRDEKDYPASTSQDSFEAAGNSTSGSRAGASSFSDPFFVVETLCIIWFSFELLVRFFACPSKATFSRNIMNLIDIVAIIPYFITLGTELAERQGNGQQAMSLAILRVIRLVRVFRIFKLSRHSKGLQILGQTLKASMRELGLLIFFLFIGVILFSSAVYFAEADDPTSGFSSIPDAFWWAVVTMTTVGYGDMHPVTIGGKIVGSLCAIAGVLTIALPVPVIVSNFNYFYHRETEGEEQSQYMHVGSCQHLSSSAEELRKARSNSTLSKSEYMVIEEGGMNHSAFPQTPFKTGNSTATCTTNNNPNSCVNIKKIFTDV
Test: Kv1.3 potassium channel blocker activity, automated whole-cell patch clamp (Patchliner)
Conditions: CHO-K1 cells stably expressing Kv1.3; whole-cell current, Hill fit
pIC50: −log10 of the molar value.
// values below are reported pIC50

# example entries with known answers
Compound: O=C1[C@@H]2C[C@H](c3c(O)ccc(Cl)c3Cl)CCN2C(=O)CN1C1CNC1
pIC50: > 6.00

Compound: O=C1[C@H]2C[C@@H](c3c(O)ccc(Cl)c3Cl)CCN2C(=O)CN1C1CNC1
pIC50: > 6.00

Compound: Cc1ccc(O)c([C@@H]2CCN3C(=O)[C@@H](CO)NC(=O)[C@@H]3C2)c1Cl (relative stereo)
pIC50: > 6.00

Let us examine a further case.
API: value(readout= pIC50, system= Kv1.3 potassium channel (Homo sapiens, UniProt P22001), query= O=C1N[C@H](CO)C(=O)N2CC[C@H](c3c(O)cc(Cl)c(Cl)c3Cl)C[C@H]12 )
> 5.00
